Reference for the values: PubChem BioAssay (NCI)

System: NCI-H226 lung
Assay: NCI-60 one-dose screen, 48 h (100 = growth as untreated, 0 = no growth, -100 = all killed)
Conditions: 10 µM unless noted
About 83,000 compounds went through this panel and 20% of them were active in at least one assay; those are over-represented in the sample as a whole.
Quick rule for you: growth under 70% gets t, anything else gets f.

Examples with answers:
Please determine if O=C(O)c1ccc2nc(-c3ccc(OCCCCCOc4ccc(-c5nc6ccc(C(=O)O)cc6[nH]5)cc4)cc3)[nH]c2c1 is below 70% in terms of growth. t

Please determine if COc1cc2ncnc(Oc3ccc(NC(=O)Nc4ccc(CN5CCOCC5)c(C(F)(F)F)c4)c4ccccc34)c2cc1OC is below 70% in terms of growth. t

Please determine if COc1ccc(/C=C2\CS(=O)(=O)C/C(=C\c3ccc(OC)cc3)C2=O)cc1 is below 70% in terms of growth. t

Please determine if CC(C)(C)NCC(O)COc1c(Br)c(Br)c(Br)c2c1OC(C)(C)C2 (stereo not given) is below 70% in terms of growth. t

Please determine if NC(=O)C1=C[C@H]2[C@H]3C=C[C@@]2(O)C(=O)O[C@@H]3O1 is below 70% in terms of growth. t

Please determine if COc1ccc2c(c1)C(=O)/C(=C/c1cccc(OCC(=O)c3ccccc3)c1)O2 is below 70% in terms of growth. f

Continuing:
Please determine if CCNC(=O)Oc1ccc(/C(=C(/CC)Cc2ccccc2)c2ccc(OCCN3CCOCC3)cc2)cc1 is below 70% in terms of growth. t

Please determine if Fc1cccc(F)c1C#Cc1ccc2cccnc2c1 is below 70% in terms of growth. f

Please determine if O=C1/C(=C/c2cccc3cnccc23)Cc2cc(F)ccc21 is below 70% in terms of growth. f

Please determine if CCCCOc1nc2ccc(Cl)cc2cc1/C=C/C(=O)/C=C/c1ccc(Cl)cc1 is below 70% in terms of growth. f

Please determine if CCC1S/C(=N\N=C(/C)c2cc3ccccc3o2)N(c2ccccc2)C1=O (stereo not given) is below 70% in terms of growth. f

Please determine if Nc1ncnc2c1c(C(F)(F)F)cn2[C@@H]1O[C@H](CO)[C@@H](O)[C@H]1O is below 70% in terms of growth. t

Please determine if CCn1c(C)nc([N+](=O)[O-])c1Sc1nc(N)nc2nc[nH]c12 is below 70% in terms of growth. t

Please determine if Nc1ccc(S(=O)(=O)Nc2ccnn2-c2ccccc2)cc1 is below 70% in terms of growth. f

Please determine if Oc1ccc(Cl)cc1Sc1cc(Cl)ccc1O is below 70% in terms of growth. f
